test system: wheat germ agglutinin (Triticum aestivum), Alexa647-labelled; test: wheat germ agglutinin binders on compound microarrays, profiling panel, artefact control for SMM control-protein annotation, biochemical, small-molecule microarray, 635/667 nm fluorescence (AID 1140); conditions: WGA-A647 binding, 635 nm fluorescence, higher = more signal;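 further: score merges 667 nm feature emission with signal to noise over triplicate slides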
I'd appreciate it if you could label each record using composite z-score and these ranges: low: < 0.4; intermediate: ≥ 0.4 and < 0.7; high: ≥ 0.7

Examples with answers:
| compound | group_label |
| --- | --- |
| C[C@]1(C(=O)NC2CC2)c2ccccc2C(=O)N(Cc2cc(F)cc(C(F)(F)F)c2)[C@H]1c1ccc(CO)cc1 | low |
| C=CCNC(=O)[C@@H]1[C@H]2C(=O)O[C@H](c3ccccc3)[C@H](c3ccccc3)N2[C@H](c2ccc(O)cc2)[C@@]12C(=O)Nc1ccc(C#CC3=CCCCC3)cc12 | high |
| COc1ccc([Si](C)(C)[C@@H]2[C@@H](CC(=O)N3Cc4ccccc4C[C@H]3CO)O[C@]3(C(=O)N(Cc4ccc(I)cc4)c4ccccc43)[C@H]2C)cc1 | low |
| CCCCN1CC=CC23O[C@@H]4/C=C\CCCOC(=O)C4[C@H]2C(=O)N(CCCCCCO)[C@@H]3C1=O (some centres undefined) | low |

Query string: Which composite z-score category applies to C=CC[C@]1(C(=O)NCC(O)CO)N=C(c2ccc(OCCCO)cc2)O[C@H]1c1ccccc1CN=[N+]=[N-] (some centres undefined) here?
Result string: intermediate

Query string: Which composite z-score category applies to COc1cc2c(cc1O)C(C)N(Cc1sc3ccccc3c1Cl)CC2 (centres undefined) here?
Result string: low

Query string: Which composite z-score category applies to `Cc1ccc(S[C@]2(C(=O)NCc3ccccc3)CC(=O)N(Cc3ccccc3Cl)[C@@H]2c2ccc(CO)cc2)cc1` here?
Result string: low

Query string: Which composite z-score category applies to `COCCCNC(=O)[C@@]1(CCC(=O)OC(C)(C)C)N=C(c2ccc(OCCCO)cc2)O[C@H]1c1ccccc1` here?
Result string: intermediate

Query string: Which composite z-score category applies to `COc1cc2c(cc1OC)CN(C(=O)[C@@H]1[C@H]3C(=O)O[C@H](c4ccccc4)[C@H](c4ccccc4)N3[C@H](c3ccc(O)cc3)[C@@]13C(=O)Nc1ccc(C#CC4=CCCCC4)cc13)CC2` here?
Result string: high

Query string: Which composite z-score category applies to `C=CC[C@]1(C(=O)NCCN2CCOCC2)N=C(c2ccc(OCCCO)cc2)O[C@H]1c1ccccc1` here?
Result string: intermediate

Query string: Which composite z-score category applies to `C[N+](C)(C)CCCC[C@@H]1NC(=O)[C@H]2C[C@@H](C(=O)NCCCCCN)[C@@H](c3ccc(O)cc3)N2C1=O` here?
Result string: high

Query string: Which composite z-score category applies to CC1CC/C=C\[C@H]2OC34C=CCN(C(C)C)C(=O)[C@H]3N(C(C)CO)C(=O)[C@@H]4C2C(=O)O1 (some centres undefined) here?
Result string: high

Query string: Which composite z-score category applies to CC1CC/C=C\[C@H]2OC34C=CCN(CCN5CCOCC5)C(=O)[C@H]3N(C(CO)C(C)C)C(=O)[C@@H]4C2C(=O)O1 (some centres undefined) here?
Result string: low
